# System: CoPoP liposomes
# TEST DETAILS: Effect of His-tag length on peptide binding to CoPoP liposomes
# MEASUREMENT CONDITIONS: FAM-labeled peptides with varying His-tag length
Where no end group is shown, it is not given here. The star is where a group is joined. 5FAM = O=C1OC2(c3ccc(O)cc3Oc3cc(O)ccc32)c2ccc(C(=O)*)cc21
READOUT NAME: binding t1/2

SUBSTANCE: 5-FAM-KKGGGGHH (SEQ ID NO: 6) (5FAM-KKGGGGHH) [2-His]
MEASURED ON: CoPoP liposomes
binding t1/2: ~10 h

# context switch: different substance, same binding t1/2
So what's the measured binding t1/2 for this one? 5-FAM-KKGGGGHHHHHHHHHH (SEQ ID NO: 10) (5FAM-KKGGGGHHHHHHHHHH) [10-His] 0.333 h
